Recorded GI50 values for a group of compounds are listed next.
# System: MDA-MB-435
# EXPERIMENT DESCRIPTION: Antiproliferative activity against human MDA-MB-435 cells assessed as growth inhibition after 48 hrs by sulforhodamine B assay
# Type: functional
# EXPERIMENTAL PARAMETERS: MDA-MB-435, 48 h
Give the value in nM but do not write nM after it.

Recall the reported GI50 of `CNC(=O)c1cc(Oc2ccc3nc(NC(=O)Nc4ccc(Cl)c(C(F)(F)F)c4)sc3c2)ccn1` when tested on MDA-MB-435.
1900

Name the value of GI50 reported for `CNC(=O)c1cc(Oc2ccc3nc(NC(=O)c4cc(C(F)(F)F)cc(C(F)(F)F)c4)sc3c2)ccn1` when tested on MDA-MB-435.
3280

Please report the measured GI50 for `CNC(=O)c1cc(Oc2ccc3nc(NC(=O)Nc4cc(C(F)(F)F)cc(C(F)(F)F)c4)sc3c2)ccn1` tested on MDA-MB-435.
1040

Specify GI50 for `CNC(=O)c1cc(Oc2ccc3nc(NC(=O)Nc4ccc(Cl)c(Cl)c4)sc3c2)ccn1` , system MDA-MB-435.
2020
